// provenance: paper PMC8000185

# protocolNotes: Cell viability (cytotoxicity) assay
# Type: cell-based
# conditionSummary: human, MDA-MB-231 cells, 48 h treatment
quantityName: IC50 at 48 h (µM)
Report the value in µM with no unit label.

Guide cases for IC50 at 48 h, answers given:
{"cpdSmiles": "N=C(N)NC(=O)c1nc(-c2cc3cc(F)cc(F)c3o2)c(N)nc1N", "IC50 at 48 h, µM": 4.7}
{"cpdSmiles": "N=C(N)NC(=O)c1nc(-c2cc3ccccc3o2)c(N2CCCCCC2)nc1N", "IC50 at 48 h, µM": 19.1}
{"cpdSmiles": "N=C(N)NC(=O)c1nc(-c2cc3ccccc3o2)c(NC2CCCCCC2)nc1N", "IC50 at 48 h, µM": 26.2}

Query :: Recorded IC50 at 48 h of `N=C(N)NC(=O)c1nc(-c2cc3ccccc3o2)c(N2CCCCC2)nc1N` , please.
Result :: 16.2

Query :: Recorded IC50 at 48 h of `N=C(N)NC(=O)c1nc(-c2cc3cc(Br)ccc3o2)c(N2CCCCCC2)nc1N` , please.
Result :: 6.2

Query :: Recorded IC50 at 48 h of `N=C(N)NC(=O)c1nc(-c2cc3cc(F)ccc3o2)c(N2CCCCCC2)nc1N` , please.
Result :: 9.6

* * *

# targetOfAssay: NHE1 (Homo sapiens, UniProt P19634)
# Construct: endogenous in cells; host or cells: MDA-MB-231
# Sequence (P19634 whole entry): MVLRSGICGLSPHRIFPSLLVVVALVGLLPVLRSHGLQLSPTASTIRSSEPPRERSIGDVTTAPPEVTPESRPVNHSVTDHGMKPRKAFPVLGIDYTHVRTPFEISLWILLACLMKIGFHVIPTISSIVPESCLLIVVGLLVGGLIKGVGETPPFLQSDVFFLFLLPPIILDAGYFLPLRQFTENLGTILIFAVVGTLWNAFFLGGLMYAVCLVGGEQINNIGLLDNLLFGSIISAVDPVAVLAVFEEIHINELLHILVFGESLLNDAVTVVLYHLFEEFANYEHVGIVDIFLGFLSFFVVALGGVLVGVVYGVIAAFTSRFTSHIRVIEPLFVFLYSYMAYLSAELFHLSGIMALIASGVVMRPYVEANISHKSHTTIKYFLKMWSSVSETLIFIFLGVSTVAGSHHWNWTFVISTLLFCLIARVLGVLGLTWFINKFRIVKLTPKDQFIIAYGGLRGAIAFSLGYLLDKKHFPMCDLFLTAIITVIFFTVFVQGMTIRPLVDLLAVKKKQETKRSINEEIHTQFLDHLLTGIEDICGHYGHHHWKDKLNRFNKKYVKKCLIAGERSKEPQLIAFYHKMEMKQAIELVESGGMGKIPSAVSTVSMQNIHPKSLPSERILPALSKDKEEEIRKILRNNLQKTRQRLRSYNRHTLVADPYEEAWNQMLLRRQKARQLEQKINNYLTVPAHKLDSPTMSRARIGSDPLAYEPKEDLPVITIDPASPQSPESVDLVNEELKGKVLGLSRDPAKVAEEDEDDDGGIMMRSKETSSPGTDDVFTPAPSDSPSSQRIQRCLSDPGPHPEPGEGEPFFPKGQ
# protocolNotes: Plate-based NHE1 inhibition assay (BCECF pHi recovery, 96-well plate reader)
# Type: cell-based
# conditionSummary: 10 μM, MDA-MB-231 cells, plate reader
Property: inhibition at 10 µM; scope: individual molecules

Query :: Form: Entry = `N=C(N)NC(=O)c1nc(-c2cc3cc(Br)ccc3o2)c(N2CCCCCC2)nc1N` | System = NHE1 (Homo sapiens, UniProt P19634) | inhibition at 10 µM = ____
Result :: 0%

Query :: Form: Entry = `COc1ccc2oc(-c3nc(C(=O)NC(=N)N)c(N)nc3N)cc2c1` | System = NHE1 (Homo sapiens, UniProt P19634) | inhibition at 10 µM = ____
Result :: 36%

Query :: Form: Entry = `N=C(N)NC(=O)c1nc(-c2cc3ccccc3o2)c(NC2CCCC2)nc1N` | System = NHE1 (Homo sapiens, UniProt P19634) | inhibition at 10 µM = ____
Result :: 0%

Query :: Form: Entry = `N=C(N)NC(=O)c1nc(-c2cc3cnccc3o2)c(N2CCCCCC2)nc1N` | System = NHE1 (Homo sapiens, UniProt P19634) | inhibition at 10 µM = ____
Result :: 100%

Query :: Form: Entry = `N=C(N)NC(=O)c1nc(-c2cncnc2)c(N2CCOCC2)nc1N` | System = NHE1 (Homo sapiens, UniProt P19634) | inhibition at 10 µM = ____
Result :: 87%

* * *

Property: IC50 at 48 h; scope: individual compounds
# protocolNotes: Cell viability (cytotoxicity) assay
# Format: cell-based
# conditionSummary: human, MDA-MB-231 cells, 48 h treatment

Guide cases for IC50 at 48 h, answers given:
{"compound": "N=C(N)NC(=O)c1nc(I)c(N)nc1N [compound 3]", "IC50 at 48 h": "> 100 µM"}
{"compound": "N=C(N)NC(=O)c1nc(-c2cncnc2)c(N2CCCCCC2)nc1N [compound 24]", "IC50 at 48 h": "> 100 µM"}

# evaluate next
Query :: Recorded IC50 at 48 h of N=C(N)NC(=O)c1nc(Cl)c(N2CCOCC2)nc1N [compound 29] , please.
Result :: > 100 µM
